Test system: NCI-H460
assay_notes: NCI tumour cell line growth inhibition, 48 h
Activity calls are given as the source filed them. Rule as the data show it: active = GI50 up to about 1.1 µM and inactive = higher.
measurement_label: GI50

Solved entries (count: 4):
{"columns": ["compound", "GI50"],
 "data": [
  ["C=Cc1cncc(C#N)c1CCc1c(C#N)cncc1C=C", "> 10 µM (inactive)"],
  ["O=C1CCN2C(=O)CCN12", "> 100 µM (inactive)"],
  ["C=C(C(=O)C(=O)Oc1ccc(Cl)cc1)C(=O)c1ccc(C)cc1", "83 µM (inactive)"],
  ["C=C(C)C1CC(=O)C(C)=C(O)C1 (centres undefined)", "> 100 µM (inactive)"]
]}

Record GI50 for all entries; do not skip any.
1. O=[N+]([O-])C(=C/c1ccccc1)/C(=C\c1ccccc1)[N+](=O)[O-]
2. NP(=O)(Oc1c2occc2cc2ccc(=O)oc12)N(CCCl)CCCl (centres undefined)
3. CN(C)c1ccc(/C=N/c2ccc(-c3nc4ccccc4s3)cc2)cc1
4. c1c[nH]c(C23C4C5C6C4C2C6C53)n1 (centres undefined)
5. CC1=C(C)C(=O)c2c(cc3ccc4ccccc4n23)C1=O

Result block:
1. 14.8 µM (inactive)
2. 68.1 µM (inactive)
3. 27.4 µM (inactive)
4. > 100 µM (inactive)
5. > 100 µM (inactive)

For every item below, please supply its GI50.
1. COP(=O)(OC)/C(=C/c1cn(C(C)=O)c2ccccc12)NC(C)=O
2. CNC(=O)CCCNC(=O)CCCCC(=O)N(C)C
3. O=C(N/N=C\c1ccc([N+](=O)[O-])cc1)Nc1cccc2ccccc12
4. O=C(Cc1ccc(OCc2cccc(Cl)c2)cc1)NO
5. COc1cc2c(cc1OC)-c1cc3ccccc3c(=O)n1CC2

Result block:
1: 52.5 µM (inactive); 2: > 100 µM (inactive); 3: > 37.3 µM (inactive); 4: 23.1 µM (inactive); 5: 28.2 µM (inactive)

# map each compound to its GI50
1. Cc1ccc(C(=O)N/N=C(\N=N\c2ccccc2C(=O)O)c2ccc(N(C)C)cc2)cc1
2. Cc1occc1C(=S)Nc1ccc(Cl)c(/C=N/OC(C)C)c1
3. O=C(c1ccccc1)N(C(=O)c1ccccc1)c1nc(SCc2ccccc2)ns1
4. CC1(C)CCCCCCCCCC(C)(CCCO)C1=O (centres undefined)
5. Cc1ccc(C)c(COCCOCn2ccc(N)nc2=O)c1

Result block:
72.6 µM (inactive)
21 µM (inactive)
21.1 µM (inactive)
18.4 µM (inactive)
> 100 µM (inactive)
